- Measured On: T1, human MSLN-R1-his protein (human, UniProt Q13421 296-390)
- T1 construct: Made in HEK293E cells, purified on nickel column; also called hMSLN-R1-his; human MSLN-R1 protein; not shown: His tag
- T1 chain: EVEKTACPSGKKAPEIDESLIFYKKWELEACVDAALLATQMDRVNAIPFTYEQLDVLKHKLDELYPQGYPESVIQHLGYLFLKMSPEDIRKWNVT
- Method: ELISA, coated antigen, antibody 0.2 nM
# OD450 values compiled below
Provide a numeric answer; units are not to be included.

Field: example entries. Status: answers known.
Binder	OD450
S009-F7.30.5 chimeric antibody (antibody, human IgG1, kappa, V domains shown, Human-murine chimeric antibody, human IgG1/kappa constant regions) VH: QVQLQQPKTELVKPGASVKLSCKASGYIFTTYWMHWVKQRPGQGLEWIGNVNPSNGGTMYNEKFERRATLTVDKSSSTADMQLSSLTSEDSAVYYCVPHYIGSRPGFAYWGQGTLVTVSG VL: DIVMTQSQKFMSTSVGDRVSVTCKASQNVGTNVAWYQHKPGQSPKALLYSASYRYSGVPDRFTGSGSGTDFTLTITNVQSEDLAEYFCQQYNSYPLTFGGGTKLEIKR	0.05
S009-F7.69.8 chimeric antibody (antibody, human IgG1, kappa, V domains shown, Human-murine chimeric antibody, human IgG1/kappa constant regions) VH: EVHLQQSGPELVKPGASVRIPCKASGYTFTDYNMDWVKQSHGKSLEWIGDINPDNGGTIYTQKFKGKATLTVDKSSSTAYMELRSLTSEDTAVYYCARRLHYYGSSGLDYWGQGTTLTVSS VL: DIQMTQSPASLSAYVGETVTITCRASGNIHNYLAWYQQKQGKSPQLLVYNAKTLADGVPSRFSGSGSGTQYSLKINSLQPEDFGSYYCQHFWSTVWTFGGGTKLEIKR	0.05
S009-F7.6.17 chimeric antibody (antibody, human IgG1, kappa, V domains shown, Human-murine chimeric antibody, human IgG1/kappa constant regions) VH: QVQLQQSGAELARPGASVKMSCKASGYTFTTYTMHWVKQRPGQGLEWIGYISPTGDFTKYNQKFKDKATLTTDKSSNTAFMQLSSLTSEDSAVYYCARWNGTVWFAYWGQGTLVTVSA VL: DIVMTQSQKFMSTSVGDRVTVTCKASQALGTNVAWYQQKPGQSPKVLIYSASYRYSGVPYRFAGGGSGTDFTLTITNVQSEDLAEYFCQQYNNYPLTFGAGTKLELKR	0.05

Q: Dear colleague, I am looking for the recorded OD450 of the following binder: S009-F7.66.12 chimeric antibody (antibody, human IgG1, kappa, V domains shown, Human-murine chimeric antibody, human IgG1/kappa constant regions) VH: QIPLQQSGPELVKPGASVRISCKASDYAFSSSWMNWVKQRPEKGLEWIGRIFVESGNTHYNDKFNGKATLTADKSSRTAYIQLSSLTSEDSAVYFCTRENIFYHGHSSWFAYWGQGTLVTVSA VL: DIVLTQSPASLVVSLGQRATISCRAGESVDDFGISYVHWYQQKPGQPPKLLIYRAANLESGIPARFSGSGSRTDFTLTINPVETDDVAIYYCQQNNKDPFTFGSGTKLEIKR
A: 0.04

Q: Here is the next binder: S009-F7.61.21 chimeric antibody (antibody, human IgG1, kappa, V domains shown, Human-murine chimeric antibody, human IgG1/kappa constant regions) VH: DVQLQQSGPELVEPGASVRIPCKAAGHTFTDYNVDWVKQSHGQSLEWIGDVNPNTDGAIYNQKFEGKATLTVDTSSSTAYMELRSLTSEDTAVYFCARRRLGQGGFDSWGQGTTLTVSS VL: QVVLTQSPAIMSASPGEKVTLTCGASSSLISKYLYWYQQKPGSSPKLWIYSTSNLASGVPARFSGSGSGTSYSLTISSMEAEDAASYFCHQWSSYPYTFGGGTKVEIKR
A: 0.05
